// values below are reported pIC50
- Target under test: PD-1/PD-L1 interaction (PD-1-Ig / PD-L1-His) (Homo sapiens, UniProt Q9NZQ7)
- Construct: hPDL1(18-239)-TVMV-His; TVMV protease site linker (C); made in house; host or cells: HEK293T
- Sequence (Q9NZQ7 with tags, fused parts or gaps): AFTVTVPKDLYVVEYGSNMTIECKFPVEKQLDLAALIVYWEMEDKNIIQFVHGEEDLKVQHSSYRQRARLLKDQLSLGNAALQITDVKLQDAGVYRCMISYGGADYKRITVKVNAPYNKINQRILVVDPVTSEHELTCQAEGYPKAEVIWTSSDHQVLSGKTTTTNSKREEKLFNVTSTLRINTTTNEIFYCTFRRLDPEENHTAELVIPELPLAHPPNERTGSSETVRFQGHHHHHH
- Procedure details: PD-1/PD-L1 Homogenous Time-Resolved Fluorescence (HTRF) binding assay
- Condition description: IC50 range class; PD-L1-His 10 nM, PD-1-Ig 20 nM; read-out: Range or IC50
pIC50: −log10 of the molar value.

- Chem smiles: "Cc1c(OCCCN[C@@](C)(CO)C(=O)O)cccc1-c1cccc(OCCCN2CC[C@@H](O)C2)c1C"
  Target under test: "PD-1/PD-L1 interaction (PD-1-Ig / PD-L1-His) (Homo sapiens, UniProt Q9NZQ7)"
  pIC50: "6.00 to 7.05"
- Chem smiles: "Cc1c(OCCCNCCc2ccncc2)cccc1-c1cccc(OCCCNCCc2ccncc2)c1C"
  Target under test: "PD-1/PD-L1 interaction (PD-1-Ig / PD-L1-His) (Homo sapiens, UniProt Q9NZQ7)"
  pIC50: "7.70 to 10.40"
- Chem smiles: "Cc1c(OCCCN[C@@H](CO)C(C)C)cccc1-c1cccc(OCCCN2CC[C@@H](O)C2)c1C"
  Target under test: "PD-1/PD-L1 interaction (PD-1-Ig / PD-L1-His) (Homo sapiens, UniProt Q9NZQ7)"
  pIC50: "6.00 to 7.05"
- Chem smiles: "Cc1c(OCCCN[C@@H](Cc2ccccn2)C(=O)O)cccc1-c1cccc(OCCCN2CC[C@@H](O)C2)c1C"
  Target under test: "PD-1/PD-L1 interaction (PD-1-Ig / PD-L1-His) (Homo sapiens, UniProt Q9NZQ7)"
  pIC50: "6.00 to 7.05"

----------
- Target under test: PD-1/PD-L1 interaction (PD-1-Ig / PD-L1-His) (Homo sapiens, UniProt Q9NZQ7)
- Construct: hPDL1(18-239)-TVMV-His; TVMV protease site linker (C); made in house; host or cells: HEK293T
- Procedure details: PD-1/PD-L1 Homogenous Time-Resolved Fluorescence (HTRF) binding assay
- Condition description: IC50 range class; PD-L1-His 10 nM, PD-1-Ig 20 nM; read-out: Range or IC50
pIC50: −log10 of the molar value.

- Compound: "Cc1c(COc2cc(OCc3cncc(C#N)c3)c(CNC(Cc3ccccc3)C(=O)O)cc2Cl)cccc1-c1cccc(COc2cc(OCc3cncc(C#N)c3)c(CNC(Cc3ccccc3)C(=O)O)cc2Cl)c1C (stereo not drawn)"
  pIC50: "7.70 to 10.40"
- Compound: "Cc1c(COc2cc(OCc3cncc(C#N)c3)c(CNC(CO)CO)cc2Cl)cccc1-c1cccc(COc2cc(OCc3cncc(C#N)c3)c(CNC(CO)CO)cc2Cl)c1C"
  pIC50: "7.70 to 10.40"
- Compound: "Cc1c(OCCCN(C)CCOCCN(C)CCCOc2cccc(-c3cccc(OCCCN4CC[C@@H](O)C4)c3C)c2C)cccc1-c1cccc(OCCCN2CC[C@@H](O)C2)c1C"
  pIC50: "7.05 to 7.70"
- Compound: "Cc1c(OCCCN[C@H](CO)C(C)C)cccc1-c1cccc(OCCCN2CC[C@@H](O)C2)c1C"
  pIC50: "6.00 to 7.05"
- Compound: "Cc1c(OCCCN2CC[C@@H](O)C2)cccc1-c1cccc(OCCCN2CCO[C@@H](CO)C2)c1C"
  pIC50: "7.05 to 7.70"
- Compound: "Cc1c(COc2cc(O)c(CN[C@@](C)(CO)C(=O)O)cc2Cl)cccc1-c1cccc(COc2cc(O)c(CN[C@@](C)(CO)C(=O)O)cc2Cl)c1C"
  pIC50: "7.70 to 10.40"
- Compound: "Cc1c(OCCCN2CCC(O)(CC(=O)O)C2)cccc1-c1cccc(OCCCN2CCC(O)(CC(=O)O)C2)c1Cl (stereo not drawn)"
  pIC50: "7.05 to 7.70"
- Compound: "Cc1c(OCCCN(C)CC(O)CO)cccc1-c1cccc(OCCCN2CC[C@@H](O)C2)c1C (mixture of isomers)"
  pIC50: "7.05 to 7.70"
- Compound: "Cc1c(OCCCN(C)C[C@H](O)CO)cccc1-c1cccc(OCCCN(C)C[C@H](O)CO)c1C"
  pIC50: "7.70 to 10.40"
- Compound: "Cc1c(COc2cc(OCc3ccc(-n4cccn4)nc3)c(CNC(CO)CO)cc2Cl)cccc1-c1cccc(COc2cc(OCc3ccc(-n4cccn4)nc3)c(CNC(CO)CO)cc2Cl)c1C"
  pIC50: "7.05 to 7.70"
- Compound: "C[C@](CO)(NCc1cc(Cl)c(OCc2cccc(-c3cccc(COc4cc(OCc5cncc(C#N)c5)c(CN[C@@](C)(CO)C(=O)O)cc4Cl)c3)c2)cc1OCc1cncc(C#N)c1)C(=O)O"
  pIC50: "7.70 to 10.40"
- Compound: "Cc1c(OCCCN(CCO)CCO)cccc1-c1cccc(OCCCN(CCO)CCO)c1C"
  pIC50: "7.05 to 7.70"
